Reference for the values: the supplement of paper PMC12042874

# PROTOCOL_NOTES: amyloid nucleation score (Sup35N fusion, yeast selection) (log enrichment); library NNK1; higher = more nucleation; inactive = no reads after selection;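 also: zero at mode of non-aggregating sequences after 7 days selection at 30°C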
Binned amyloid nucleation score; ranges: lo (below 0.06), mid (0.06 to below 0.4), hi (0.4 or more)

Example entries and their recorded answers appear below.
* NGWNYM | lo
* KIGLPGLCVW | mid

Turning now to a further record.
Query: Given FTSSIMEFNESQWVNFTFIW , name the class its amyloid nucleation score places it in.
Result: hi

###

# PROTOCOL_NOTES: amyloid nucleation score (Sup35N fusion, yeast selection) (log enrichment); library NNK3; higher = more nucleation; inactive = no reads after selection
OUTCOME_MEASURE: amyloid nucleation score

* REKDSAAHVVE | inactive
* SFLVSFTGVMLEFNCTCHLA | inactive
* YCVLLRCNFFRSL | inactive
* EKECRTWHHVDGSLVESCYY | inactive
* CTVNCMTNNATVLVVRGPLR | 2.26

Provide amyloid nucleation score values for the following items, in order.
1. SGTSFISTKFSISLSIWLTA
2. TNMHYMSHYLETTPFTTGMV
3. MRIRIPTSNNEGYPIFMSAL
4. LNMIHSVA
5. MRFSKGNYLYMREGHKGFCG

Result:
inactive
inactive
inactive
inactive
inactive

Would you mind giving amyloid nucleation score for every substance in the list below?
1. WFFILD
2. KSGRSCYIFVYMWQLTVYSG
3. RMSLRAELVKVNLEAIPNWT
4. DEYATRIGYWCCK
5. YISSPSIWLCISCEHRGTSA

Result:
["inactive", "inactive", "inactive", 1.7, 2.92]
